Target: Activated CDC42 kinase 1 (Homo sapiens, UniProt Q07912); also: in the data inactive means no Kd found up to 30 µM
Sequence (Q07912 whole entry): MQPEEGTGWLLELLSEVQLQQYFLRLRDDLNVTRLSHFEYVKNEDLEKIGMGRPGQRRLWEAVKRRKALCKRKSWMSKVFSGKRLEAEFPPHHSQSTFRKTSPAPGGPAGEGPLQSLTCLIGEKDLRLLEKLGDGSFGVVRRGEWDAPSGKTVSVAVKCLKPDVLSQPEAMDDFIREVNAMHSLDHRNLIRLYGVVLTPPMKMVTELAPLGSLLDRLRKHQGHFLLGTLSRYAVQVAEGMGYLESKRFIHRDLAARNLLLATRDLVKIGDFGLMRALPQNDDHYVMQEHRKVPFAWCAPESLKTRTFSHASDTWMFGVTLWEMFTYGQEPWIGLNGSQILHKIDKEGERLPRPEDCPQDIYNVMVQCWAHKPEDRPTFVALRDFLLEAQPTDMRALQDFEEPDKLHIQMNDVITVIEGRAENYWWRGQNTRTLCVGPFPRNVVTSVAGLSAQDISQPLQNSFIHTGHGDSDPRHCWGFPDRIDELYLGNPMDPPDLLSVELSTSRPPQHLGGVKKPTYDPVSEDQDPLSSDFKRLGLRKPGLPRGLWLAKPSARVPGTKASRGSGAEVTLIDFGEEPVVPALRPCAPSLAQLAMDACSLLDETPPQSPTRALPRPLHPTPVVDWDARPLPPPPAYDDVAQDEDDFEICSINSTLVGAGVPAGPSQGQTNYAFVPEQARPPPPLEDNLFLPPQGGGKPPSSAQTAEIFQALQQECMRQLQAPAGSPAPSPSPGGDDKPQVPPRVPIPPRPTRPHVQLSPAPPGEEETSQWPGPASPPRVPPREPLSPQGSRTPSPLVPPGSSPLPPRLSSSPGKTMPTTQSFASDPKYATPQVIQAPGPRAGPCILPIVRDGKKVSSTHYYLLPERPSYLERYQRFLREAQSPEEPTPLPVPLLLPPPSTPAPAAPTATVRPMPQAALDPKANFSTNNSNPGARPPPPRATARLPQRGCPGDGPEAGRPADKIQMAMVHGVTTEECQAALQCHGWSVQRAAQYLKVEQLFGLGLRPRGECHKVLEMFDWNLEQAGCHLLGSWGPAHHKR
The source made the active and inactive calls.
Consider the following molecules and their measured Kd readings.

molecule	Kd
CNC(=O)c1ccc(-c2cnc3ncc(Cc4ccc5ncccc5c4)n3n2)cc1F [CAPMATINIB]	> 30 µM (inactive)
CN1CCC(COc2cnc(-c3cccc(Cn4nc(-c5cccc(C#N)c5)ccc4=O)c3)nc2)CC1 [TEPOTINIB]	> 30 µM (inactive)
COC(=O)N[C@@H](C)CNc1nccc(-c2cn(C(C)C)nc2-c2cc(Cl)cc(NS(C)(=O)=O)c2F)n1 [ENCORAFENIB]	> 30 µM (inactive)
Cc1ccc(-n2nc(C(C)(C)C)cc2NC(=O)NCc2cc(F)ccc2Oc2ccc3c(cnn3CCO)c2)cc1 [PEXMETINIB]	> 30 µM (inactive)
CNC(=O)CN1CCC(Oc2cc3c(Nc4cccc(Cl)c4F)ncnc3cc2OC)CC1 [SAPITINIB]	> 30 µM (inactive)
N[C@@H]1CCCN(c2c(/C=C3\SC(=O)NC3=O)cccc2-c2ccccc2)C1	> 30 µM (inactive)
COc1cc2nccc(Oc3ccc(NC(=O)Nc4cc(C)on4)c(Cl)c3)c2cc1OC [TIVOZANIB]	> 30 µM (inactive)
CO[C@H]1C[C@@H]2CC[C@@H](C)[C@@](O)(O2)C(=O)C(=O)N2CCCC[C@H]2C(=O)O[C@H]([C@H](C)C[C@@H]2CC[C@@H](OCCO)[C@H](OC)C2)CC(=O)[C@H](C)/C=C(\C)[C@@H](O)[C@@H](OC)C(=O)[C@H](C)C[C@H](C)/C=C/C=C/C=C/1C [EVEROLIMUS]	> 30 µM (inactive)
C[C@@H]1CN(Cc2ccc(F)cc2)[C@@H](C)CN1C(=O)c1cc2c(C(=O)C(=O)N(C)C)cn(C)c2cc1Cl [TALMAPIMOD]	> 30 µM (inactive)
CN(C)C(=O)c1cc2cnc(Nc3ccc(N4CCNCC4)cn3)nc2n1C1CCCC1 [RIBOCICLIB]	> 30 µM (inactive)
Cn1ncc(Cl)c1-c1cc(C(=O)N[C@H](CN)Cc2cccc(F)c2)sc1Cl [AFURESERTIB]	> 30 µM (inactive)
CN1CC[C@@H](c2c(O)cc(O)c3c(=O)cc(-c4ccccc4Cl)oc23)[C@@H]1CO	> 30 µM (inactive)
C=CC(=O)N1CCC(Oc2cc3c(Nc4ccc(Cl)c(Cl)c4F)ncnc3cc2OC)CC1 [POZIOTINIB]	> 30 µM (inactive)
O=C(Nc1ccc(-c2ccnc(Nc3ccc(N4CCOCC4)cc3)n2)cc1)C1CCCN1 (configuration not stated) [XL-019]	> 30 µM (inactive)
COc1cc(CCc2cc(NC(=O)c3ccc(N4C[C@@H](C)N[C@@H](C)C4)cc3)n[nH]2)cc(OC)c1 [AZD-4547]	0.148 µM
Cc1c(F)cc(C(=O)NC2CC2)cc1-c1ccc(C(=O)NCC(C)(C)C)cn1 [LOSMAPIMOD]	> 30 µM (inactive)
COCCNCc1ccc(-c2cc3nccc(Oc4ccc(NC(=S)NC(=O)Cc5ccc(F)cc5)cc4F)c3s2)nc1 [GLESATINIB]	> 30 µM (inactive)
COc1cc(N2CCC(N3CCN(C)CC3)CC2)ccc1Nc1ncnc(Nc2ccccc2S(=O)(=O)C(C)C)n1 [ASP-3026]	0.005 µM (active)
COc1ccc(-c2ccc3c(N4CCOC[C@@H]4C)nc(N4CCOC[C@@H]4C)nc3n2)cc1CO [AZD-8055]	> 30 µM (inactive)
Cc1cc2c(F)c(Oc3ncnn4cc(OC[C@@H](C)OC(=O)[C@H](C)N)c(C)c34)ccc2[nH]1 [BRIVANIB ALANINATE]	> 30 µM (inactive)
COc1cc(OC)c(/C=C/S(=O)(=O)Cc2ccc(OC)c(NCC(=O)O)c2)c(OC)c1 [RIGOSERTIB]	> 30 µM (inactive)
O=C1NC(=O)/C(=C/c2ccc3nccc(-c4ccncc4)c3c2)S1 [GSK-1059615]	> 30 µM (inactive)
Cn1cc(-c2ccc3nnc(C(F)(F)c4ccc5ncccc5c4)n3n2)cn1 [JNJ-38877605]	> 30 µM (inactive)
CNC(=O)c1cc(Oc2ccc(NC(=O)Nc3ccc(Cl)c(C(F)(F)F)c3)c(F)c2)ccn1 [REGORAFENIB]	> 30 µM (inactive)
O=c1sn(-c2cccc3ccccc23)c(=O)n1Cc1ccccc1 [TIDEGLUSIB]	> 30 µM (inactive)
CC(C)Nc1cc(-c2c[nH]c(C(=O)N[C@H](CO)c3cccc(Cl)c3)c2)c(Cl)cn1 [ULIXERTINIB]	> 30 µM (inactive)
CNS(=O)(=O)Nc1nccc(Cc2c(C)c3ccc(Oc4ncccn4)cc3oc2=O)c1F [AVUTOMETINIB]	> 30 µM (inactive)
O=C(O)[C@]1(Cc2cccc(Nc3nccs3)n2)CC[C@@H](Oc2cccc(Cl)c2F)CC1 [MK-5108]	0.473 µM (active)
Cc1cc([C@@H](C)Nc2ccccc2C(=O)O)c2nc(N3CCOCC3)cc(=O)n2c1 [AZD-6482]	> 30 µM (inactive)
CCN1CCN(Cc2ccc(-c3cc4c(N[C@H](C)c5ccccc5)ncnc4[nH]3)cc2)CC1 [AEE-788]	1.01 µM (active)
C1=C/COCc2cc(ccc2OCCN2CCCC2)Nc2nccc(n2)-c2cccc(c2)COC/1 [PACRITINIB]	9.33 µM (active)
Cc1ccc(S(=O)(=O)Nc2nc3ccccc3nc2Nc2ccc3nsnc3c2)cc1	> 30 µM (inactive)
